experiment.description: 6 month dry powder stability, HPLC assay
Type: physicochemical
measurement.context: 40 ° C., 6 months
outcome.measure: HPLC assay (% w/w on anhydrous and solvent free basis) (% w/w)

# molecule, unit.of.measurement, data.value
records = [
    ("C[C@H](NP(=O)(OC[C@H]1O[C@@H](n2cc(F)c(=O)[nH]c2=O)CC1O)Oc1cccc2ccccc12)C(=O)OCc1ccccc1 (stereo partly shown) [Example 3, Batch 2]", "% w/w", 100.4),
    ("C[C@H](NP(=O)(OC[C@H]1O[C@@H](n2cc(F)c(=O)[nH]c2=O)CC1O)Oc1cccc2ccccc12)C(=O)OCc1ccccc1 (stereo partly shown) [Example 3, Batch 1]", "% w/w", 100.7),
    ("C[C@H](NP(=O)(OC[C@H]1O[C@@H](n2cc(F)c(=O)[nH]c2=O)CC1O)Oc1cccc2ccccc12)C(=O)OCc1ccccc1 (stereo partly shown) [Comparative Example 4]", "% w/w", 97.7),
    ("C[C@H](NP(=O)(OC[C@H]1O[C@@H](n2cc(F)c(=O)[nH]c2=O)CC1O)Oc1cccc2ccccc12)C(=O)OCc1ccccc1 (stereo partly shown) [Example 3, Batch 3]", "% w/w", 100.8),
]

Reference for the values: patent US20250296948A1
